- Tested on: OVCAR-4 ovarian
- protocol: NCI-60 one-dose screen, 48 h (100 = growth as untreated, 0 = no growth, -100 = all killed)
- test-settings: 10 µM
- Description: Growth inhibition of the OVCAR-4 human tumor cell line is measured as a screen for anti-cancer activity. Cells are grown in 96 well plates and exposed to the test compound for 48 hours. Compounds are tested at a single concentration, which is 10^-5 M for most compounds. The reported endpoint is percent growth (GI% or GIPRCNT), where numbers from 0 - 100% represent growth inhibition, and numbers from -100% - 0 represent cell death. For example, a value of 40 represents 60% growth inhibition. […]
Compounds without any hit were thinned out: in the full panel of roughly 83,000, 20% have a hit.
quantity-measured: growth (%)
Quick reminder: number only, in %, skip the unit.

Solved cases (9 shown):
O=C(NCCO)c1cccnc1: 110
O=C(Nc1ccc(Nc2ccncc2)cc1)c1ccc([N+](=O)[O-])cc1: 67.3
CC1Cc2c(Cl)ncnc2N(C)c2ccc(Cl)cc21 (stereo not given): 7.91
C#C[C@]1(O)CC[C@H]2[C@@H]3CC=C4c5nc(N)sc5CC[C@]4(C)[C@H]3CC[C@@]21C: 63.4
O=C(COc1cccc(/C=C2\Oc3ccccc3C2=O)c1)c1ccc([N+](=O)[O-])cc1: 97
CCCC[C@@H](C=O)NC(=O)[C@H](CC(C)C)NC(=O)[C@H](CC(C)C)NC(=O)OCc1ccccc1: 10.8
Cn1cc(-c2noc(-c3cn(C)c4ncc(F)cc34)n2)c2cc(Cl)ccc21: -50.6
C[C@]12CCc3c(ccc4cc(O)ccc34)[C@@H]1CC[C@H]2O: 96.1
COc1cc2c(O)n(CCCN3CCOCC3)c3c4cnc5cccc(c(=O)c3c2cc1OC)c54: 48

# next compound below
-- ask Param item = `O=C(OCc1ccc2c(Cl)cc(Cl)c(O)c2n1)N1CCN(C(=O)c2cc3cc(F)ccc3[nH]2)CC1` ; retrieve measured growth.
-- reply 40

----------
- System: 786-0 renal
- protocol: NCI-60 one-dose screen, 48 h
- test-settings: 10 µM unless noted
Compounds without any hit were thinned out: in the full panel of roughly 83,000, 20% have a hit. Active and inactive are the calls of the source. The calls were made as follows: active = growth percent below 10; inactive = the rest.
Pick one: true = active, false = inactive

COc1c(C(C)=O)c(OCCCCOc2c(C(C)=O)c(OC)c3ccoc3c2OC)c(OC)c2occc12: false
CC1(C)CC[C@]2(C(N)=O)CC[C@]3(C)C(=CC[C@@H]4[C@@]5(C)C/C(=C/c6cccnc6)C(=O)C(C)(C)[C@@H]5CC[C@]43C)[C@@H]2C1: true
COc1ccc(C2CC(c3ccc4ccccc4c3)=NN2c2nc(O)c(C3=c4cc(OC)ccc4=NC3=O)s2)cc1 (stereo not drawn): true
CC(=O)OC[C@]12CC[C@@H](C(=O)CBr)[C@@H]1[C@H]1CC[C@@H]3[C@@]4(C)CCCNC(C)(C)[C@@H]4CC[C@@]3(C)[C@]1(C)CC2: true
COc1ccc(C2=C(c3cn(C)c4ccccc34)C(=O)OC2)cc1OC: false
CCOC(=O)c1nn(C2CCCCO2)c2ccc(NC(=O)CN3CCCC3)cc12 (stereo not drawn): false

-- ask Test call, this compound: `COc1ccc(-c2cc(-c3ccc(Cl)cc3)nc(NCCCCNc3ccnc4cc(Cl)ccc34)n2)cc1`
-- reply false

-- ask Hi, sorry to bother you, what did the test record for CCCCC(CCCCCC(CCCC)C1NC(C)Cc2cc(OC)c(OC)cc21)C1NC(C)Cc2cc(OC)c(OC)cc21 (stereo not drawn) ?
-- reply true
